molecular target: Leukotriene B4 receptor (Homo sapiens) (UniProt Q9NPC1+Q15722); test: Antagonistic activity against Leukotriene B4 receptor by using [3H]- LTB4 as a radioligand at a concentration of 10e-8 M; assay type: functional
Sequence (Q15722 whole entry, looked up): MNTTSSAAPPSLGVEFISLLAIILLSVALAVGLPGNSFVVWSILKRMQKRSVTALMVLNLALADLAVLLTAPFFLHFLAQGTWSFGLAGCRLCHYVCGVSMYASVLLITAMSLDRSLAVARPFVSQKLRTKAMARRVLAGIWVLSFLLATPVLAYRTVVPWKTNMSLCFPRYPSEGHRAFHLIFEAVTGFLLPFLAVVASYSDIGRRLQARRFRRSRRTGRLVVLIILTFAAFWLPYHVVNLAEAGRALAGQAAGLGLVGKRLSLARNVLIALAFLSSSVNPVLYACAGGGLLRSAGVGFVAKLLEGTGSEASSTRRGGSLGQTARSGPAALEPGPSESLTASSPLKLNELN
Sequence (Q9NPC1 whole entry, looked up): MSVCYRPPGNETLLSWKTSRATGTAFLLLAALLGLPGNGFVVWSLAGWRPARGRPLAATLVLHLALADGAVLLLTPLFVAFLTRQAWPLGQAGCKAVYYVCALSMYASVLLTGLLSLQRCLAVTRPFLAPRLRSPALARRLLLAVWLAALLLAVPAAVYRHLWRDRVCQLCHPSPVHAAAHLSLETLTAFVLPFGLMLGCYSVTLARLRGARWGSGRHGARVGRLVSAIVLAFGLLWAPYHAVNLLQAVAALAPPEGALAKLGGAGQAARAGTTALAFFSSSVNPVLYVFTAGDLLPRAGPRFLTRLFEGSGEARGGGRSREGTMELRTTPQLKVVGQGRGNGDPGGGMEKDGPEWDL
Kindly supply the reported inhibition values for the records listed here.
Give bare numbers, in %.

Before answering, review these 5 worked examples.
> print(dat)
                                   compound  property.name  readout.value
1  CC(=O)c1ccc(CCCCCCOc2ccc(C(=O)c3cccc(C(=O)O)c3)cc2CCC(=O)O)cc1     inhibition             11
2  O=C(O)CCc1cc(C(=O)c2cccc(C(=O)O)c2)ccc1OCCCCCCc1ccc(Cl)cc1     inhibition             15
3  O=C(O)CCc1cc(C(=O)c2cccc(C(=O)O)c2)ccc1OCCCCCCc1ccc(O)cc1     inhibition              6
4  COc1ccccc1CCCCCCOc1ccc(C(=O)c2cccc(C(=O)O)c2)cc1CCC(=O)O     inhibition              5
5  COc1ccc(CCCCCCOc2ccc(C(=O)c3cccc(C(=O)O)c3)cc2CCC(=O)O)cc1     inhibition             18

For every listed record, write down its inhibition.
1. COc1ccc(/C=C\CCCCOc2ccc(C(=O)c3cccc(C(=O)O)c3)cc2CCC(=O)O)cc1
2. COc1ccccc1/C=C/CCCCOc1ccc(C(=O)c2cccc(C(=O)O)c2)cc1CCC(=O)O
3. CS(=O)(=O)c1ccc(/C=C/CCCCOc2ccc(C(=O)c3cccc(C(=O)O)c3)cc2CCC(=O)O)cc1
4. O=C(O)CCc1cc(C(=O)c2cccc(C(=O)O)c2)ccc1OCCCC/C=C/c1ccccc1
5. COc1ccc(C#CCCCCOc2ccc(C(=O)c3cccc(C(=O)O)c3)cc2CCC(=O)O)cc1
6. COc1ccc(/C=C/CCCCOc2ccc(C(=O)c3cccc(C(=O)O)c3)cc2CCC(=O)O)c(OC)c1
7. O=C(O)CCc1cc(C(=O)c2cccc(C(=O)O)c2)ccc1OCCCCCCCCCCc1ccccc1
8. COc1ccc(/C=C/CCCCOc2ccc(C(=O)c3cccc(C(=O)O)c3)cc2CCC(=O)O)cc1

Result:
0
25
31
3
9
20
0
40

For every listed record, write down its inhibition.
1. O=C(O)CCc1cc(C(=O)c2cccc(C(=O)O)c2)ccc1OCCCCCCc1ccc(F)cc1
2. Cc1ccc(/C=C/CCCCOc2ccc(C(=O)c3cccc(C(=O)O)c3)cc2CCC(=O)O)cc1
3. COc1cccc(/C=C/CCCCOc2ccc(C(=O)c3cccc(C(=O)O)c3)cc2CCC(=O)O)c1
4. C[S+]([O-])c1ccc(/C=C/CCCCOc2ccc(C(=O)c3cccc(C(=O)O)c3)cc2CCC(=O)O)cc1 (configuration not stated)

Result:
1. 6
2. 24
3. 13
4. 36

Sourced from ChEMBL document CHEMBL1124984
